PDGFR-β 10 μM, % of inhibition relative to control values by entry
# Target: human PDGFRβ (Gln557-Leu1106) (Homo sapiens, UniProt P09619)
# Construct: human PDGFRβ (Gln557-Leu1106); GST (N); purchased Cell Signaling Technology; host or cells: baculovirus expression system
# Sequence (P09619 557-1106): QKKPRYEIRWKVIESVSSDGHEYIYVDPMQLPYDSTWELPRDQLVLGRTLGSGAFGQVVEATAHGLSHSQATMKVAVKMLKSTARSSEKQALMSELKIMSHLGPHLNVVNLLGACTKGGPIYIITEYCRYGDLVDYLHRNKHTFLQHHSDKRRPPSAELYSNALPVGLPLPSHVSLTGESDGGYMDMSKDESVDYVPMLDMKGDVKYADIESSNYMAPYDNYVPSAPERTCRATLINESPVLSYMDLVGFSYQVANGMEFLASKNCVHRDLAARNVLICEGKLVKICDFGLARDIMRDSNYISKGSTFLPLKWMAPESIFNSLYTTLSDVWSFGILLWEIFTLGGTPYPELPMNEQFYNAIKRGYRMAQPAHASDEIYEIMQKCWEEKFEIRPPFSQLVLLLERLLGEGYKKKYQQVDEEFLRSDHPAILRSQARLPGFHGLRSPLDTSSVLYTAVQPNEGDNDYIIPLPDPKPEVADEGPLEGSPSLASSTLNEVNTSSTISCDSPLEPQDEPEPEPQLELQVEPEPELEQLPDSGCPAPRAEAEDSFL
# Test Summary: PDGFR-beta kinase assay (HTScan kit, DELFIA)
# Type: biochemical
# Recorded Conditions: compound at 10 μM
# number then unit; no other words

Below are worked cases with known answers.
Query string: For O=C1/C(=C/c2ccc3cccccc2-3)c2ccccc2N1C(c1ccccc1)c1ccccc1 [Compound 3] , what is its reported PDGFR-β 10 μM, % of inhibition relative to control?
Result string: 14.4%

Query string: Another molecule to check: O=C1Nc2ccc(Br)cc2/C1=C/c1ccc2cccccc1-2 [Compound 6]
Result string: 35.5%

Query string: What do you have for O=C1Nc2ccc(Cl)cc2/C1=C\c1ccc2cccccc1-2 [Compound 22] ?
Result string: 5.3%

Query string: What about this molecule? O=C1Nc2ccccc2/C1=C\c1c2cccccc-2[nH]c1=O [Compound 27]
Result string: 5.3%

Query string: // repeat for O=C1Nc2ccc([N+](=O)[O-])cc2/C1=C/c1ccc2cccccc1-2 [Compound 8] and report
Result string: 16.2%

Query string: Moving on to the next molecule: O=C1Nc2ccc(F)cc2/C1=C/c1ccc2cccccc1-2 [Compound 26]
Result string: 7.9%

Now for another entry.
Query string: Please give the measured PDGFR-β 10 μM, % of inhibition relative to control for this molecule: Cc1cc(/C=C2/C(=O)Nc3ccccc32)c2c(C)ccc(C(C)C)cc1-2 [Compound 12]
Result string: 7.3%

---

# Target: human VEGFR-2 (Val789-Val1356) (Homo sapiens, UniProt P35968)
# Construct: human VEGFR-2 (Val789-Val1356); GST (N); purchased Cell Signaling Technology; host or cells: baculovirus expression system
# Sequence (P35968 789-1356): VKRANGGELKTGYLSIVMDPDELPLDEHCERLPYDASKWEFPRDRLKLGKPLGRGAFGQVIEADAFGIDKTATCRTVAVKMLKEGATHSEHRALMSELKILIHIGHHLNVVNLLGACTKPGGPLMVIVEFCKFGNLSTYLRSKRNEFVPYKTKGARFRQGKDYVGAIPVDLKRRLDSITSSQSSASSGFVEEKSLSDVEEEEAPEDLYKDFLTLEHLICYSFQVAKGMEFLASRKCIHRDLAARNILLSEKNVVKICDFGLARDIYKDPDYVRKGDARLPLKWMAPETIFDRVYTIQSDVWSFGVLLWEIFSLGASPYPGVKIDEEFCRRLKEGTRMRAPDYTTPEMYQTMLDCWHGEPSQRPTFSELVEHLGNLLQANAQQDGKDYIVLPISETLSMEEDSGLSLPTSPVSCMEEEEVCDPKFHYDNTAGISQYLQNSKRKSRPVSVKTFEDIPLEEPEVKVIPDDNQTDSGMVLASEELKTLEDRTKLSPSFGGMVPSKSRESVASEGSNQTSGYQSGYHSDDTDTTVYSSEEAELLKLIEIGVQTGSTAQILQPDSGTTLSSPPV
# Test Summary: KDR kinase assay (HTScan VEGFR-2 kit, DELFIA)
# Format: biochemical
# Recorded Conditions: compound at 0.1 μM; read-out: KDR 0.1 μM, % of inhibition relative to control
Reported inhibition at 0.1 µM is given for each of the following molecules.
Write it as a number; the unit % goes unstated.

Query string: Consider the molecule shown here: `Cc1c2cccccc-2c(C)c1/C=C1/C(=O)Nc2ccc(F)cc21` What is its recorded inhibition at 0.1 µM?
Result string: 14.8

Query string: Input `Cc1cc(C=C2C(=O)Nc3c(F)cccc32)c2ccccc(OCCCN(C)C)c1-2`
Result string: 28.7

Query string: Try this molecule next: `Cc1cc(/C=C2/C(=O)N(Cc3ccc(C#N)cc3)c3ccccc32)c2c(C)ccc(C(C)C)cc1-2`
Result string: 5.1

Query string: Now give it for `O=C1Nc2ccc(F)cc2/C1=C/c1c(Br)c2cccccc-2c1Br` too.
Result string: 44.2

Query string: Would you kindly repeat that for `O=C1Nc2ccc(F)cc2/C1=C/c1c2cccccc-2oc1=O` ?
Result string: 21.9

---

# Target: human VEGFR-2 (Val789-Val1356) (Homo sapiens, UniProt P35968)
# Construct: human VEGFR-2 (Val789-Val1356); GST (N); purchased Cell Signaling Technology; host or cells: baculovirus expression system
# Test Summary: KDR kinase assay (HTScan VEGFR-2 kit, DELFIA)
# Assay type: biochemical
# Recorded Conditions: compound at 0.1 μM; read-out: KDR 0.1 μM, % of inhibition relative to control
Collected inhibition at 0.1 µM values appear next to each entry.
Write down the numeric answer in % and omit the unit.

As a guide, the following entries are already answered.
Query string: Requested read-out: inhibition at 0.1 µM. Entry: `Cc1cc(C=C2C(=O)Nc3cc(C(F)(F)F)ccc32)c2ccccc(OCCCN(C)C)c1-2`
Result string: 35.8

Query string: How about `Cc1cc(/C=C2/C(=O)Nc3ccc(F)cc32)c2ccccc(OCCCN(C)C)c1-2` ?
Result string: 38.6

Query string: Please give the result for `O=C1Nc2c(Cl)cccc2/C1=C/c1ccc2cccccc1-2` too.
Result string: 6

Query string: Same again, this time with `CCc1cc(C=C2C(=O)Nc3ccc(F)cc32)c2cccccc1-2`
Result string: 30.2

Query string: Item: `CC(C)c1cc(C=C2C(=O)Nc3ccc(F)cc32)c2cccccc1-2`
Result string: 33

Query string: // next record `Cc1cc(/C=C2/C(=O)N(C(c3ccccc3)c3ccccc3)c3ccccc32)c2c(C)ccc(C(C)C)cc1-2`
Result string: 17.1

More entries:
Query string: Entry under review: `CN(C)Cc1c(/C=C2/C(=O)Nc3ccc(F)cc32)cc2cccccc1-2` . Reported inhibition at 0.1 µM?
Result string: 19.9

Query string: Subsequent entry: `Cc1ccc2c(c1)/C(=C\c1ccc3cccccc1-3)C(=O)N2`
Result string: 7.8

Query string: Cool, now `O=C1Nc2ccc(F)cc2/C1=C/c1cc(Cl)c2cccccc1-2`
Result string: 10

---

# Target: human VEGFR-2 (Val789-Val1356) (Homo sapiens)
# Construct: human VEGFR-2 (Val789-Val1356); GST (N); purchased Cell Signaling Technology; host or cells: baculovirus expression system
# Test Summary: KDR kinase assay (HTScan VEGFR-2 kit, DELFIA)
# Format: biochemical
# Recorded Conditions: compound at 0.1 μM; read-out: KDR 0.1 μM, % of inhibition relative to control
Overview of recorded inhibition at 0.1 µM for various compounds
Give the value in % but do not write % after it.

Example entries begin here.
Query string: Fill blank: measured inhibition at 0.1 µM of the compound `Cc1cc(C=C2C(=O)Nc3ccc(C(F)(F)F)cc32)c2ccccc(OCCCN(C)C)c1-2` is ____.
Result string: 33.3

Query string: Next compound: `CN(C)Cc1cc(/C=C2/C(=O)Nc3ccccc32)c2cccccc1-2`
Result string: 12.1

Query string: // same read-out, input: `Cc1cc(C=C2C(=O)Nc3ncccc32)c2ccccc(OCCCN(C)C)c1-2`
Result string: 30.1

Query string: Next compound up: `O=C1Nc2ccc([N+](=O)[O-])cc2/C1=C/c1ccc2cccccc1-2`
Result string: 26.4

Further cases:
Query string: Reported inhibition at 0.1 µM for `CN(C)Cc1cc(/C=C2/C(=O)Nc3ccc(F)cc32)c2cccccc1-2` : what is it?
Result string: 46.8

Query string: Entry `Cc1ccc2c(c1)/C(=C\c1c3cccccc-3nc1N)C(=O)N2` please
Result string: 17

Query string: Okay, and `Cc1cc(/C=C2/C(=O)N(Cc3ccccc3)c3ccccc32)c2c(C)ccc(C(C)C)cc1-2` ?
Result string: 54.1

Query string: Can you check `Cc1[nH]c(/C=C2\C(=O)Nc3ccc(F)cc32)c2ccc(=O)ccc12` next?
Result string: 6.7

---

# Target: human VEGFR-2 (Val789-Val1356) (Homo sapiens, UniProt P35968)
# Construct: human VEGFR-2 (Val789-Val1356); GST (N); purchased Cell Signaling Technology; host or cells: baculovirus expression system
# Test Summary: KDR kinase assay (HTScan VEGFR-2 kit, DELFIA)
# Type: biochemical
# Recorded Conditions: read-out: KDR kinase inhibition (IC50)
Measured Endpoint: IC50 (µM)
Form entry: value (µM) — number only.

Query string: Could you share which IC50 value was measured for `Cc1cc(/C=C2/C(=O)Nc3ccc(F)cc32)c2ccccc(OCCCN(C)C)c1-2` ?
Result string: 0.5

More entries:
Query string: Quick one: IC50 of `Cc1cc(/C=C2\C(=O)Nc3ccc(F)cc32)c2cccccc1-2` ?
Result string: 6.38

---

# Target: human VEGFR-2 (Val789-Val1356) (Homo sapiens, UniProt P35968)
# Construct: human VEGFR-2 (Val789-Val1356); GST (N); purchased Cell Signaling Technology; host or cells: baculovirus expression system
# Test Summary: KDR kinase assay (HTScan VEGFR-2 kit, DELFIA)
# Type: biochemical
# Recorded Conditions: compound at 1 μM; read-out: KDR 1 μM, % of inhibition relative to control
Quick reference: inhibition at 1 µM of the listed items.
Give the number; % is assumed, so skip it.

Query string: Which inhibition at 1 µM reading was recorded for the molecule `Cc1ccc2c(c1)/C(=C\c1ccc3cccccc1-3)C(=O)N2` ?
Result string: 34

Query string: `O=C1Nc2ccc(F)cc2/C1=C\c1ccc2cccc-2cc1` ?
Result string: 20.1

Query string: How about `COc1ccc(CN2C(=O)/C(=C/c3cc(C)c4cc(C(C)C)ccc(C)c3-4)c3ccccc32)cc1` ?
Result string: 52.4

Query string: `Cc1cc(C=C2C(=O)Nc3ncccc32)c2ccccc(OCCCN(C)C)c1-2` , same question.
Result string: 88

Query string: Similarly, `O=C1Nc2ccc(F)cc2/C1=C/c1c2cccccc-2oc1=O` ?
Result string: 35.1

Query string: Another molecule: `Cc1cc(C=C2C(=O)Nc3ccc(C(F)(F)F)cc32)c2ccccc(OCCCN(C)C)c1-2`
Result string: 73.2

Query string: And the next one, `O=C1Nc2ccc(F)cc2/C1=C\c1ccccc2cccc1-2` ?
Result string: 9.1

Query string: Next molecule: `Cc1cc(/C=C2/C(=O)Nc3ccc(F)cc32)c2ccccc(OCCCN(C)C)c1-2`
Result string: 63.8

Next:
Query string: Given the entry `O=C1Nc2ccc(Cl)cc2/C1=C/c1ccc2cccccc1-2` , report its measured inhibition at 1 µM.
Result string: 28.3

Query string: Also check `COC(=O)c1cc(/C=C2\C(=O)Nc3ccccc32)c2cccccc1-2`
Result string: 20.1

Query string: Further, for Cc1cc(C=C2C(=O)Nc3ccc(F)cc32)c2ccccc(OCCCN3CCOCC3)c1-2 (mixture of isomers) ?
Result string: 11.5
